Target: UniProt P00451
Sequence (P00451 20-759 limits assumed): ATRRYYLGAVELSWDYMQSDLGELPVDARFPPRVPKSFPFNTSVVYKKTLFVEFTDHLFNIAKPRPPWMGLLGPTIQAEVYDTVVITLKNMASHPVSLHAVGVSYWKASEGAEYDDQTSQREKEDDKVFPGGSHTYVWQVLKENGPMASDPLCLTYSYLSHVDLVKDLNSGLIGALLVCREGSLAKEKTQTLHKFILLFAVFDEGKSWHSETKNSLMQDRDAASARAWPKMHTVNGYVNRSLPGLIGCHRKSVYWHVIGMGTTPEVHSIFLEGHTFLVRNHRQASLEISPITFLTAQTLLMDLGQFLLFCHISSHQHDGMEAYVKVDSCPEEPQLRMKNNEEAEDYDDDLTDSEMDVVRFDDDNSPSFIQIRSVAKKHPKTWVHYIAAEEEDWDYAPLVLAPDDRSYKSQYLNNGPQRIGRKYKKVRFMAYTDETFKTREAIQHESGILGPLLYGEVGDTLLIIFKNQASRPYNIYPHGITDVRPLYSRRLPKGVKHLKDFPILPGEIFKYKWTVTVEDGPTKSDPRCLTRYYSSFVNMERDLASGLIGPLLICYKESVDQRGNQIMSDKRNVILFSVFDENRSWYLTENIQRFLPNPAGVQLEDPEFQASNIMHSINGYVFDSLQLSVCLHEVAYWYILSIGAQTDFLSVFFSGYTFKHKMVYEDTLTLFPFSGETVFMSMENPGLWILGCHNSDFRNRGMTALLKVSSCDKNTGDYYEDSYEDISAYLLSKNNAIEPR
Sequence (P00451 1668-2351 limits assumed): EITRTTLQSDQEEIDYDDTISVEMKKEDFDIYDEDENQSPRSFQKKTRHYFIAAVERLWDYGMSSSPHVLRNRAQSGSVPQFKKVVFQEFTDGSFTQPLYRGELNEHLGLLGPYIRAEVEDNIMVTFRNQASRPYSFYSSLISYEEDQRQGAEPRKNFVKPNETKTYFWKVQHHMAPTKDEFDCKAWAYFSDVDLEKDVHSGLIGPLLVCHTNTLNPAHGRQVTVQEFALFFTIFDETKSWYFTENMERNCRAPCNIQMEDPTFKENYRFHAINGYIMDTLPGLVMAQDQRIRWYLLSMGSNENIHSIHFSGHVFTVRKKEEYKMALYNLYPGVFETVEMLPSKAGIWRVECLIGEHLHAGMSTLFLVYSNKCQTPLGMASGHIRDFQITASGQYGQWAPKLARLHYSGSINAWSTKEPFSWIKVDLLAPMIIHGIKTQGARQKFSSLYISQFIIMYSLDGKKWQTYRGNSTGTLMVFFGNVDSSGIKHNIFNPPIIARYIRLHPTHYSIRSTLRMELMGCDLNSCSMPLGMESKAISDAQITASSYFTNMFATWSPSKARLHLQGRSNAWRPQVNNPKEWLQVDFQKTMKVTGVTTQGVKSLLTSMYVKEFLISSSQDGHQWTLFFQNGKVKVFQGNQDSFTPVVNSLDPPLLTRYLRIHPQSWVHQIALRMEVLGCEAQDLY
Assay: Inhibition Assay
Settings: pH 8
Method: Inhibition of factor VIII ELISA. The interaction between factor VIII and PS was measured by using an enzyme-linked immunoadsorbent assay (ELISA).
Sorting guide: entries reporting IC50 beneath 4 µM go in the Criterion met pile, the rest go in the Criterion not met pile.

Please review the entries below; each comes with its answer.
Task item: Consider the compound O=C1/C(=C/c2ccc(Br)o2)SC(=S)N1c1ccc([N+](=O)[O-])cc1 . Is its IC50 strictly less than 4 µM?
Reply: Criterion not met

Task item: What would you report for O=C1/C(=C/c2ccc(Br)o2)SC(=S)N1c1cccc(C(F)(F)F)c1 ?
Reply: Criterion not met

Task item: Entry to check: O=C1NC(=S)NC(=O)C1=Cc1ccc(-c2cccc(C(=O)O)c2Cl)o1
Reply: Criterion not met

Task item: Ok, now O=C1NC(=S)NC(=O)C1=Cc1ccc(-c2cc(Cl)c([N+](=O)[O-])cc2Cl)o1
Reply: Criterion met

Task item: Please answer likewise for O=C1/C(=C/c2ccc(I)o2)SC(=S)N1c1cccc(C(F)(F)F)c1
Reply: Criterion not met

Task item: Consider next the compound O=C1/C(=C/c2ccc(-c3ccc(Cl)cc3Cl)o2)SC(=S)N1c1cccc(C(F)(F)F)c1 in the same way.
Reply: Criterion met

Lab note: next compound to report on.
Task item: A record lists O=C1/C(=C\c2ccc(Sc3ccc(Cl)cc3)o2)SC(=S)N1c1ccc([N+](=O)[O-])cc1 . Is its IC50 below 4 µM?
Reply: Criterion not met
